# System Under Test: T1, human GLP-1R (human), P43220
# T1 chain: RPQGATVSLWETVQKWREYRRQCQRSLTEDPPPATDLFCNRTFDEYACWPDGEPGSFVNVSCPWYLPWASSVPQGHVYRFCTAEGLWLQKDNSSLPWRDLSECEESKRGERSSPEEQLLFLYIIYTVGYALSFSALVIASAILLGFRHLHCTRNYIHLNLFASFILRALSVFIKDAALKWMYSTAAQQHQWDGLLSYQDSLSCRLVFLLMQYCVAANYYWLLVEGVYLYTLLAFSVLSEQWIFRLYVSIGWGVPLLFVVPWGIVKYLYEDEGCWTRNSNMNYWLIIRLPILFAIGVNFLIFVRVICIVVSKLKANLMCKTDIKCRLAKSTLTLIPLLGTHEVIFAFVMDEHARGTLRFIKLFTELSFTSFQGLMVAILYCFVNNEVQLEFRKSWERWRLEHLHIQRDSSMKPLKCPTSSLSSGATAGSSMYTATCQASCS
Non-standard residues stand in square brackets, D forms with d. Groups on a side chain read outwards from the residue. Primed or numbered codes have the meaning given here. No end group written: not given here. *: point of attachment. Lauroyl = CCCCCCCCCCCC(=O)*; Hexanoyl = CCCCCC(=O)*; Aib = CC(C)(N)C(=O)O
Result Type: Agonist activity (EC50, M)

# Binder, Result
data = [
    ("Y[Aib]EGTFISDYSK([PEG(2)-Pal])ALDRIHQQDFVNWLLAQRPSSGAPPPS (ends and bridges not checked) [Compound 172]", "> 1e-06 M"),
    ("Y[Aib]EGTFISDYSK([PEG(2)-Hexanoyl])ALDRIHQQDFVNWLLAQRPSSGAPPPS (ends and bridges not checked) [Compound 174]", "> 1e-06 M"),
    ("Y[Aib]EGTFISDYSK([PEG(2)-Lauroyl])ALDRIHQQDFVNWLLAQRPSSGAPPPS (ends and bridges not checked) [Compound 175]", "> 1e-06 M"),
]
